Below is a list of entries, each paired with its recorded inhibition value.
# target: Testis-specific serine/threonine-protein kinase 1 (Homo sapiens);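 further: reported value is the mean inhibition, from the GSK PKIS kinase screening panel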
# test.settings: at 1 µM
Could you kindly put the unit after your number?

# compound.smiles, target, obs.value
records = [
    ("NC(=O)c1cccc(Nc2nccc(Nc3cccc(F)c3)n2)c1", "Testis-specific serine/threonine-protein kinase 1 (Homo sapiens)", "0.75%"),
]

Now consider a different compound.
inhibition reading for `CC(C)c1ccc2c(c1)NC(=O)/C2=N/Nc1ccc(S(N)(=O)=O)cc1` : 1.24%

====

# target: Fibroblast growth factor receptor 4 (Homo sapiens);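 further: values are mean percent inhibition of FGFR4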
# test.settings: at 0.1 µM
Below is a list of entries, each paired with its recorded inhibition value.
Give your result in % as a bare value.

Field: example entries. Status: answers known.
# compound.smiles, output.unit, inhibition
measured = [
    ("CS(=O)(=O)Nc1cccc(-c2ccc3c(NC(=O)C4CC4)n[nH]c3c2)c1", "%", -5.5),
    ("c1ccc(Cc2nc3ccc(Nc4ncnc5ccccc45)cc3[nH]2)cc1", "%", -1.72),
    ("[O-][S+]1CCN(Cc2ccc(-c3ccc4ncnc(Nc5ccc(OCc6ccccc6)c(Cl)c5)c4c3)o2)CC1", "%", -0.05),
    ("COc1ccc(-c2nn3ncccc3c2-c2ccnc(Nc3cccc(C(F)(F)F)c3)n2)cc1", "%", 1.02),
]

inhibition reading for `COc1cc(/C=N/Nc2ncnc3c2cnn3C(C)C)ccc1O` : -8.41

====

# target: Tyrosine-protein kinase CSK (Homo sapiens);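 further: each value is an averaged inhibition reading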
# test.settings: at 1 µM
observable: inhibition

Field: example entries. Status: answers known.
# compound.smiles, inhibition
rows = [
    ("Cc1ccc2c(-c3ccnc(Nc4ccc5c(c4)OCCO5)n3)c(-c3ccc(C(F)(F)F)cc3)nn2n1", "0.48%"),
    ("O=C1Nc2ccccc2/C1=C/Nc1ccc2[nH]c(=O)[nH]c2c1", "9.18%"),
    ("Cc1nc(-c2ccccc2)n2nc(NCCCN3CCOCC3)ncc12", "1.69%"),
    ("Cc1ccc(NC(=O)CC2CC2)cc1-c1ccc(C(=O)NCC2CC2)cc1", "5.95%"),
    ("Nc1ccc(C#Cc2cncnc2Nc2ccc(OCc3cccc(F)c3)c(Cl)c2)cc1", "4.88%"),
    ("O=C1Nc2ccc(-c3cccnc3)cc2C1=Cc1cc(Br)c(O)c(Br)c1", "-1.69%"),
    ("NS(=O)(=O)c1ccc(N/N=C2\\C(=O)Nc3ccc(Cl)cc32)cc1", "7.01%"),
    ("CN1CCN(C(=O)c2ccc(NC(=O)Nc3ccc(N(C)c4ccnc(Nc5ccc(CS(C)(=O)=O)cc5)n4)cc3)cc2)CC1", "12.6%"),
    ("NC(=O)c1sc(-n2cnc3ccccc32)cc1OCc1ccccc1Br", "2.18%"),
    ("COc1cccc(-n2ncc3c(N/N=C/c4ccc(S(C)(=O)=O)cc4)ncnc32)c1", "18.2%"),
]

inhibition reading for `NS(=O)(=O)c1ccc(NC=C2C(=O)Nc3ccc4ncsc4c32)cc1` : 3.77%

inhibition reading for `NS(=O)(=O)c1ccc(-c2cc3ccncc3cc2OCc2ccccc2)cc1` : 5.2%

inhibition reading for `COc1ccc(-c2nn3ncccc3c2-c2ccnc(Nc3cccc(C(F)(F)F)c3)n2)cc1` : 7.02%

inhibition reading for `NS(=O)(=O)c1cccc(Nc2cc(-c3ccc(F)cc3)n[nH]2)c1` : 6.86%

inhibition reading for `O=C(Nc1ccc(Oc2ccc3[nH]c(NC(=O)c4ccco4)nc3c2)cc1)Nc1cc(C(F)(F)F)ccc1F` : 35.3%
